These entries and their values trace back to patent US20250320312A1.

# target or system: Peptide 5: Biotin-…-[Tyr(PC)]-acid
# Sequence (peptide, as listed by the source): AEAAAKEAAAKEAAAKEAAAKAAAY
# assay remarks: scFv ELISA
As shown below, each of these binders has a reported OD450 value.
endpoint name: OD450 (OD450)

binder | result value
PcOxP_DB02_B06 (scFv, V domains shown, scFv in periplasmic extract) VH: EVQLLESGGGLVQPGGSLRLSCAASGFTFSDNYMEWVRQAPGKGLEWVAASRNKANDYTTEYADSVKGRFTISRDNSKNTLYLQMNSLRAEDTAVYYCARDYYGSSYWYFDVWGQGTLVTVSS VL: DIQMTQSPSSLSASVGDRVTITCTASESLYSSKHKVHYLAWYQQKPGKAPKLLIYGASNRYIGVPSRFSGSGSGTDFTLTISSLQPEDFATYYCTQFYSYPLTFGGGTKVEIK | 0.79
PcOxP_DB02_C10 (scFv, V domains shown, scFv in periplasmic extract) VH: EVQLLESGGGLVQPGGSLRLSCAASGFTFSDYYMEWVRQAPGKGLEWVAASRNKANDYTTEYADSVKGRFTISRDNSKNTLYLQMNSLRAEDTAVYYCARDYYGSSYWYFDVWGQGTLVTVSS VL: DIVMTQSPDSLAVSLGERATINCTASESLYSSKHKVHYLAWYQQKPGQPPKLLIYGASNRYIGVPDRFSGSGSGTDFTLTISSLQAEDVAVYYCAQFYEYPLTFGGGTKVEIK | 0.92
